Provide the reported activity change, negative = inhibition of each item.
Molecular target: D(1A) dopamine receptor (Homo sapiens) (UniProt P21728)
Sequence (P21728 whole entry, looked up): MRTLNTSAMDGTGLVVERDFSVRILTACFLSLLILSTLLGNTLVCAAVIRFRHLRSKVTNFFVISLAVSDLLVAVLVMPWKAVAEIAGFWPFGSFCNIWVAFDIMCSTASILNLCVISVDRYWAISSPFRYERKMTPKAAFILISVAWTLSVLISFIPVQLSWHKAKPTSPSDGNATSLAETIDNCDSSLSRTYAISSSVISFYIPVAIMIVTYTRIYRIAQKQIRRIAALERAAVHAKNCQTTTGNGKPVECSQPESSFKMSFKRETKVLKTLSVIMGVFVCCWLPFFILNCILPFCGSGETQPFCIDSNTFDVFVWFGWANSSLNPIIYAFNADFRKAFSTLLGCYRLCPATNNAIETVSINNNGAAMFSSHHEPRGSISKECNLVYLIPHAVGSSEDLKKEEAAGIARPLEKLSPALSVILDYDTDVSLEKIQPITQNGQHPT
Assay: Antagonist of Human D 1 Dopamine Receptor: qHTS; note: % is set by controls: 0 for no effect and ±100 for the full control effect
Conditions: HEK293 TREx D1 cells, calcium flux, dopamine EC80; at 10 µM; active compounds read low
Screen size: about 360,000 compounds; about 11,000 (3.1%) were called active. The full list was thinned out, with actives kept by preference.
Answer with a number only, understood to be in %.

Asked: Data request, read-out activity change, negative = inhibition, for C#CCOCCOCCOCCNc1nc(N2CCN(C(=O)[C@H](CCC(=O)O)n3cc(C(N)CO)nn3)CC2)nc(N2CCN(C(=O)[C@H](CCCCN)n3cc(C(N)[C@H](C)CC)nn3)CC2)n1 (some centres not stated)
Given back: -39.7

Asked: Data request, read-out activity change, negative = inhibition, for CCOc1ccc(CNCCSc2nnnn2C)cc1
Given back: -2.56

Asked: Data request, read-out activity change, negative = inhibition, for Cc1ccc(NC(=O)c2cc(S(=O)(=O)NCCC3=CCCCC3)ccc2F)cc1C
Given back: -29.8

Asked: Data request, read-out activity change, negative = inhibition, for C#CCOCCOCCOCCNc1nc(N2CCN(C(=O)[C@H](CCC(=O)O)n3cc(C(N)CO)nn3)CC2)nc(N2CCN(C(=O)[C@H](CCCCN)n3cc(C(N)CC(C)C)nn3)CC2)n1 (some centres not stated)
Given back: -32.3

Asked: Data request, read-out activity change, negative = inhibition, for C#CCOCCOCCOCCNc1nc(N2CCN(C(=O)[C@H](Cc3ccc(O)cc3)n3cc(C(N)CC(C)C)nn3)CC2)nc(N2CCN(C(=O)[C@H](CCC(=O)O)n3cc(C(N)[C@H](C)CC)nn3)CC2)n1 (some centres not stated)
Given back: -5.53

Asked: Data request, read-out activity change, negative = inhibition, for COc1ccc(Cl)cc1NC(=O)NC(C)C(C)(C)C (configuration not stated)
Given back: -26.1

Asked: Data request, read-out activity change, negative = inhibition, for CCOC(=O)N1CCN(S(=O)(=O)N2CCCC(C(=O)NCCCN3CCC(C)CC3)C2)CC1 (configuration not stated)
Given back: 2.88

Asked: Data request, read-out activity change, negative = inhibition, for COc1cc(CNCCSc2nnnn2C)ccc1OCc1c(F)cccc1Cl
Given back: -17.9

Asked: Data request, read-out activity change, negative = inhibition, for CCCS(=O)(=O)N1CCCC(C(=O)NCCN2CCCCC2C)C1 (configuration not stated)
Given back: -41.8

Asked: Data request, read-out activity change, negative = inhibition, for C#CCOCCOCCOCCNc1nc(N2CCN(C(=O)[C@H](C(C)C)n3cc(CCO)nn3)CC2)nc(N2CCN(C(=O)[C@H](C(C)C)n3cc(CCO)nn3)CC2)n1
Given back: 7.62

Asked: Data request, read-out activity change, negative = inhibition, for Cn1nnnc1SCCCNCc1cccc(OCc2ccc(Cl)cc2)c1
Given back: -15.2

Asked: Data request, read-out activity change, negative = inhibition, for CCCn1nc(Oc2nc(NC(C)C)nc(N(C)C)n2)ccc1=O
Given back: -79.5

Asked: Data request, read-out activity change, negative = inhibition, for CC(=O)NC1=NN(C(C)=O)C(C)(CCS(=O)(=O)c2ccc(Cl)c(Cl)c2)S1 (configuration not stated)
Given back: -39.7

Asked: Data request, read-out activity change, negative = inhibition, for C#CCOCCOCCOCCNc1nc(N2CCN(C(=O)C(Cc3ccc(O)cc3)n3cc(C(N)CC(C)C)nn3)CC2)nc(N2CCN(C(=O)C(Cc3ccc(O)cc3)n3cc(C(N)C(C)CC)nn3)CC2)n1 (configuration not stated)
Given back: -10.5

Asked: Data request, read-out activity change, negative = inhibition, for Cc1cccc(N2CCN(C(=O)c3cc4c(=O)oc5ccccc5c4s3)CC2C)c1 (configuration not stated)
Given back: -15.4

Asked: Data request, read-out activity change, negative = inhibition, for Cc1c(Cl)cccc1-c1ccc(CNCCCSc2nnnn2C)o1
Given back: -35

Asked: Data request, read-out activity change, negative = inhibition, for CC(=O)NC1=NN(C(C)=O)C(C)(c2ccc(Cl)s2)S1 (configuration not stated)
Given back: 2.68

* * *

Target: D(1A) dopamine receptor (Homo sapiens) (UniProt P21728)
Experiment: Antagonist of Human D 1 Dopamine Receptor: qHTS; note: % is set by controls: 0 for no effect and ±100 for the full control effect
Conditions: HEK293 TREx D1 cells, calcium flux, dopamine EC80; at 10 µM; active compounds read low
Among all 360,000 compounds or so, about 11,000 (3.1%) were called active. Many of the other results were omitted from the sample, so actives are more common in it than they were.
EXPERIMENTAL ENDPOINT: activity change, negative = inhibition (%)
Answer with a number only, understood to be in %.

Asked: Data request, read-out activity change, negative = inhibition, for COc1ccc(-c2nc3nc(C)cc(C)n3c2Nc2c(C)cccc2C)cc1
Given back: 4.35

Asked: Data request, read-out activity change, negative = inhibition, for Cc1[nH]n(C)c(=O)c1C(=O)c1c(-c2c(Cl)cccc2Cl)noc1C
Given back: -9.05

Asked: Data request, read-out activity change, negative = inhibition, for Cc1ccc(Cl)cc1N(C)C(=O)Cn1nc(Cc2cccnc2)c2ccccc2c1=O
Given back: 10.4

Asked: Data request, read-out activity change, negative = inhibition, for Cc1cccc(C)c1NC(=O)c1ccc(CN2CCc3ccccc3C2)cc1
Given back: -14.8

Asked: Data request, read-out activity change, negative = inhibition, for CCN1CCN(c2ncc3c(n2)CC(c2ccccc2O)CC3=O)CC1 (configuration not stated)
Given back: 0.271

Asked: Data request, read-out activity change, negative = inhibition, for CN(c1ccc(C(=O)N2CCc3ccccc3C2)cc1)S(C)(=O)=O
Given back: 1.19

Asked: Data request, read-out activity change, negative = inhibition, for O=C(Nc1ccccc1Cc1ccccc1)c1ccc2c(c1)SC1=NS(=O)(=O)CCN12
Given back: -30.1

Asked: Data request, read-out activity change, negative = inhibition, for Cc1ccc(OCCSc2nc3ccc(NC(=O)COc4ccc(C)cc4)cc3s2)cc1
Given back: -5.49

Asked: Data request, read-out activity change, negative = inhibition, for COc1ccccc1CNC(=O)COc1ccc(C)nc1[N+](=O)[O-]
Given back: 4.17

Asked: Data request, read-out activity change, negative = inhibition, for Cc1cccc(CC(=O)N2CC(=O)Nc3ccc(F)cc3C2c2ccccc2)c1 (configuration not stated)
Given back: -5.67

Asked: Data request, read-out activity change, negative = inhibition, for CCOc1ccc(-c2n[nH]c3c2C(c2ccccc2OC)N(c2ccc(Br)cc2)C3=O)cc1 (configuration not stated)
Given back: 9.65

Asked: Data request, read-out activity change, negative = inhibition, for COc1cccc(CN(C)CC(=O)NCc2ccccc2Cl)c1OC
Given back: -23.2

Asked: Data request, read-out activity change, negative = inhibition, for Cc1nc2ccc(C(=O)N(C)CC3CCCN(CCc4ccc(Cl)cc4)C3)cc2[nH]1 (configuration not stated)
Given back: -13.3

Asked: Data request, read-out activity change, negative = inhibition, for CC(=O)Nc1ccc2nc(SCCOc3cc(C)cc(C)c3)sc2c1
Given back: -35.7

Asked: Data request, read-out activity change, negative = inhibition, for Cc1c(N=Nc2ccc(N(C)C)cc2)c(=O)n(-c2ccccc2)n1C
Given back: -0.41

Asked: Data request, read-out activity change, negative = inhibition, for CN(c1cccc(NC(=O)c2ccc(CN3CCc4ccccc4C3)cc2)c1)S(C)(=O)=O
Given back: -37.7

Asked: Data request, read-out activity change, negative = inhibition, for COc1ccccc1C(=O)OCC(=O)NCCNC(=O)COC(=O)c1ccccc1OC
Given back: 9.27

Asked: Data request, read-out activity change, negative = inhibition, for O=S1(=O)CCN2C(=N1)SC1=C2CCN(Cc2ccccc2)C1
Given back: 2.33

Asked: Data request, read-out activity change, negative = inhibition, for COC(=O)c1ccc(NC(=O)C(C)N2C(=O)c3ccccc3C2=O)cc1 (configuration not stated)
Given back: -2.2

Asked: Data request, read-out activity change, negative = inhibition, for FC(F)(F)c1cc(Nc2nc3ccccc3c3nncn23)ccc1Cl
Given back: -0.606

Asked: Data request, read-out activity change, negative = inhibition, for Cc1oc(-c2ccccc2F)nc1CN1CCC(C(=O)NCCc2ccc(Cl)cc2)CC1
Given back: -10.2

Asked: Data request, read-out activity change, negative = inhibition, for Cn1c(=O)nc2n(-c3ccc(Br)cc3)c3cccc(Cl)c3cc-2c1=O
Given back: -15.6

* * *

Provide the reported activity change, negative = inhibition of each item.
Biological target: D(1A) dopamine receptor (Homo sapiens)
Assay: Antagonist of Human D 1 Dopamine Receptor: qHTS; note: % is set by controls: 0 for no effect and ±100 for the full control effect
Conditions: HEK293 TREx D1 cells, calcium flux, dopamine EC80; at 10 µM; active compounds read low
Description: Dopamine receptors (DARs) are involved in the etiology and/or therapy of a number of neuropsychiatric and endocrine disorders. […] Freshly passaged cells are plated in 1536 well black, clear bottom plates at a density of 4000 cells/well in 3 ul of complete media containing 1x tetracycline inducer. […] Agonist read: A 10 cycle (1 second/cycle) baseline measurement is taken and then the FDSS online 1536 pintool delivers 23 nl of compound library (as well as dopamine controls) to the plate. […]
The campaign covered roughly 360,000 compounds. About 11,000 (3.1%) were called active. The sample as a whole holds a higher share of actives than the screen did.
Answer with a number only, understood to be in %.

Asked: Data request, read-out activity change, negative = inhibition, for CN(C(=O)COc1ncnc2c1cnn2-c1ccccc1)C1CCCCC1
Given back: 2.82

Asked: Data request, read-out activity change, negative = inhibition, for COc1ccccc1CN1CCC(CNC(=O)c2cnn(-c3cccc(Cl)c3)c2C2CCN(C(=O)OC(C)(C)C)CC2)CC1
Given back: 3.93

Asked: Data request, read-out activity change, negative = inhibition, for Cc1cc(C(=O)OCC(=O)c2c(N)n(C)c(=O)n(C)c2=O)c(C)o1
Given back: -60.8

Asked: Data request, read-out activity change, negative = inhibition, for CN(Cc1ccccc1)C(=O)c1cn(C)c2ccc(S(=O)(=O)N(C)C3CCCCC3)cc2c1=O
Given back: -6.93

Asked: Data request, read-out activity change, negative = inhibition, for O=C1C=C(c2ccc(Cl)cc2)C(=O)N1Nc1ccccc1
Given back: -47.7

Asked: Data request, read-out activity change, negative = inhibition, for Cn1c(N)c(C(=O)COC(=O)c2cnc(Cl)c(Cl)c2)c(=O)n(C)c1=O
Given back: 12.2

Asked: Data request, read-out activity change, negative = inhibition, for CC(=O)c1sc(N/N=C\c2ccc(C)cc2)nc1C
Given back: -54.7

Asked: Data request, read-out activity change, negative = inhibition, for Cc1cccc(NC(=O)Cn2nc(-c3ccc(Cl)cc3)c3ccccc3c2=O)c1
Given back: 6.9

Asked: Data request, read-out activity change, negative = inhibition, for CC(C)Sc1ncnc2c1cnn2-c1ccccc1
Given back: 11.9

Asked: Data request, read-out activity change, negative = inhibition, for CN(C)CC/C=C1\c2ccccc2CSc2ccccc21
Given back: -62.1

Asked: Data request, read-out activity change, negative = inhibition, for CC(=O)c1sc(N/N=C/c2ccc(C(C)C)cc2)nc1C
Given back: -11
